Attribute: TGI
Tested on: NCI-H23 lung
Assay Info: NCI tumour cell line growth inhibition, 48 h
Attribute Measured: TGI (µM)

INSERT INTO assay_data (compound, attribute_measured, readout_qualifier, reading) VALUES
  ('CCOC(=O)c1c(-c2ccccc2)[nH]c2ccc(Cl)cc2c1=O', 'TGI', '>', 100),
  ('CC1=[N+]([O-])C(C)(C)N(O)C1(C)C', 'TGI', '>', 100),
  ('CC(C)=CCC/C(C)=C/CC/C(=C/COP(=O)(OCc1ccc([N+](=O)[O-])o1)N(C)CCCCCl)C(C)(C)C (centres undefined)', 'TGI', '=', 34.2),
  ('Cn1cc(C2=C(c3c4n(c5ccccc35)CCC(CN)CC4)C(=O)NC2=O)c2ccccc21 (centres undefined)', 'TGI', '=', 10.9),
  ('COc1ccc2c(c1)/C(=C\c1cccc(/C=C3/C(=O)Nc4ccc(OC)cc43)n1)C(=O)N2', 'TGI', '=', 2.6),
  ('Cc1ccnc2nc3[nH]c4ccccc4c3cc12', 'TGI', '>', 100),
  ('CC(C)(O)[C@H]1[C@@H]2OC(=O)[C@H]1[C@]1(O)C[C@H]3OC34C(=O)O[C@H]2[C@@]41C (some centres undefined) (tested in a mixture with another compound)', 'TGI', '>', 100),
  ('C/C(=N/NC(=S)N1CCCC1)c1cccc(/C(C)=N\NC(=S)N2CCCC2)n1', 'TGI', '=', 6.5),
  ('CC(=O)OCC1OC(S[As](C)C)C(OC(C)=O)C1OC(C)=O (centres undefined)', 'TGI', '=', 3.63);

Numbers sourced from PubChem BioAssay (NCI).
